For each record, write down the corresponding viability, T/C.
System: 843126-344-R-J1-PDC complex spheroid viability;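 also: spheroids exposed to drugs for seven days before readout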
procedureText: Anticancer human tumor 843126-344-R-J1-PDC patient-derived melanoma cell line growth inhibition [POLQ]
conditionParameters: second compound 1 µM; first compound 0.1 µM; active compounds read low
Give just the numeric value; % need not be written.

Ask | Could you share what viability, T/C was measured for C=CCn1c(=O)c2cnc(Nc3ccc(N4CCN(C)CC4)cc3)nc2n1-c1cccc(C(C)(C)O)n1 + Nc1ccc(C#CCN(C(=O)Cc2ncc(C(F)(F)F)cc2C(F)(F)F)c2ccc(F)cc2)nn1 , tested on 843126-344-R-J1-PDC complex spheroid viability?;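 also: spheroids exposed to drugs for seven days before readout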
Reply | 90.4

Ask | Could you share what viability, T/C was measured for Nc1ccn(C2OC(CO)C(O)C2(F)F)c(=O)n1 (stereo unspecified) + COC1C(OC(N)=O)C(O)C(Oc2ccc3c(O)c(NC(=O)c4ccc(O)c(CC=C(C)C)c4)c(=O)oc3c2C)OC1(C)C , tested on 843126-344-R-J1-PDC complex spheroid viability?;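 also: spheroids exposed to drugs for seven days before readout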
Reply | 36

Ask | Could you share what viability, T/C was measured for C=CC(=O)N1CCN(c2nc(=O)n(-c3c(C)ccnc3C(C)C)c3nc(-c4c(O)cccc4F)c(F)cc23)C(C)C1 (stereo unspecified) + Nc1ccc(C#CCN(C(=O)Cc2ncc(C(F)(F)F)cc2C(F)(F)F)c2ccc(F)cc2)nn1 , tested on 843126-344-R-J1-PDC complex spheroid viability?;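 also: spheroids exposed to drugs for seven days before readout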
Reply | 104

Ask | Could you share what viability, T/C was measured for CNCc1ccc(-c2[nH]c3cc(F)cc4c3c2CCNC4=O)cc1 + Cc1cccc(N(C)C(=O)C2C(O)CCN2c2nc(C)cc(C(F)(F)F)c2C#N)c1 , tested on 843126-344-R-J1-PDC complex spheroid viability?;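 also: spheroids exposed to drugs for seven days before readout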
Reply | 87.2

Ask | Could you share what viability, T/C was measured for COc1cc2cc(C(=O)CCC(=O)O)sc2cc1OC + Cc1cccc(N(C)C(=O)C2C(O)CCN2c2nc(C)cc(C(F)(F)F)c2C#N)c1 , tested on 843126-344-R-J1-PDC complex spheroid viability?;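 also: spheroids exposed to drugs for seven days before readout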
Reply | 84.2

Ask | Could you share what viability, T/C was measured for Nc1ccn(C2OC(CO)C(O)C2(F)F)c(=O)n1 (stereo unspecified) + Nc1ccc(C#CCN(C(=O)Cc2ncc(C(F)(F)F)cc2C(F)(F)F)c2ccc(F)cc2)nn1 , tested on 843126-344-R-J1-PDC complex spheroid viability?;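 also: spheroids exposed to drugs for seven days before readout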
Reply | 35.3
